Experiment: NCI Yeast Anticancer Drug Screen. Data for the cln2 rad14 strain (AID 165);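 further: 0% = growth equal to vehicle treated cultures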
Conditions: S. cerevisiae cln2 rad14 strain, at 50.0 µM, active compounds read high
Experimental: Growth inhibition of yeast strains with defined genetic alterations is measured as a screen for potential anti-cancer activity. Selected strains with alterations in DNA damage repair or cell cycle control were exposed to compounds and growth inhibition was measured relative to vehicle treated controls. The strain used in this assay is cln2 rad14
The panel holds about 79,000 compounds, 15% with a hit somewhere; the sample as a whole holds those more often.
assayReadout: growth inhibition (%)
Your answer should be a plain number; it is taken to be in %.

Here's what some known entries look like.
molecule | readoutUnits | growth inhibition
c1cc2c(cc1C1OC[C@H]3[C@@H](c4ccc5c(c4)OCO5)OC[C@@H]13)OCO2 (stereo not given in full) | % | 10.8
NN1CCCC1C(=O)O (stereo not given) | % | 76.2
CCc1cc2c(cc1O)C(C)(C)CCC2(C)C | % | 98
C[CH2][Hg][Cl] | % | 93.3
O=P(Nc1ccccc1)(Oc1ccccc1)N1CCN(c2ccccc2)CC1 (stereo not given) | % | 85.9
C[N+](C)=C1C=CC(=C2C=CSC=C2)C=C1 | % | 25

Query Cc1cc[n+](C2=C(Nc3cc(C)cc(C)c3)C(=O)c3ccccc3C2=O)cc1 yields growth inhibition of 6.75

Query C[CH2][Sn]([CH2]C)([CH2]C)[O]C(=O)CO yields growth inhibition of 55.4

Query COC(=O)CCCCCCCCC[CH2][Hg][Cl] yields growth inhibition of 97.3

----------
experiment: NCI Yeast Anticancer Drug Screen. Data for the cln2 rad14 strain (AID 165);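 further: 0% = growth equal to vehicle treated cultures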; conditions: S. cerevisiae cln2 rad14 strain, at 50.0 µM, active compounds read high
This is part of a sample that, as a whole, favours compounds with a hit. Of some 79,000 tested, about 15% had one in any assay.
assayReadout: growth inhibition (%)
Your answer should be a plain number; it is taken to be in %.

Here's what some known entries look like.
compound | assayReadout | readoutUnits | resultValue
CC1=CC2OC3CC4OC(=O)/C=C/C=C/C(=O)OCCC(C)C(O)C(=O)OCC2(CC1O)C4(C)C31CO1 (configuration not stated) | growth inhibition | % | 91.7
CCOP(=S)(OCC)SC(O)(C(F)F)C(F)F | growth inhibition | % | 22.4
Cc1ccc2nc3sc(=O)sc3nc2c1 | growth inhibition | % | 92
Cn1cc(/C=C/[N+](=O)[O-])c2ccccc21 | growth inhibition | % | 96.5
O=c1oc2ccccc2c(O)c1C1c2c(c3ccccc3oc2=O)Oc2c1c(=O)oc1ccccc21 | growth inhibition | % | 87.3
Cc1cc(O)c2c(c1)C(=O)C13C(=C2O)C(=O)C2C(O)C1C1C(O)C3C(=O)C3=C(O)c4c(O)cc(C)cc4C(=O)C321 (configuration not stated) | growth inhibition | % | 60.1
Cc1c2ccccc2cc2ccccc12 | growth inhibition | % | 98
Clc1c(Cl)c(Cl)c([S][Pb]([c]2ccccc2)([c]2ccccc2)[c]2ccccc2)c(Cl)c1Cl | growth inhibition | % | 97.7

Query COC(=O)CC1(C(=O)O)CC2(Cl)C(Cl)=C(Cl)C1(Cl)C2(Cl)Cl (configuration not stated) yields growth inhibition of 83.5

Query Cc1cc(N(CCCl)CCCl)ccc1C=Nc1ccc(-c2csc(COc3ccccc3)n2)c(Cl)c1 yields growth inhibition of 89.1
